settings: in n-butanol, 303.15 K
MEASURED_METRIC: solubility (mole fraction)

Query block: Please look up its solubility (mole fraction): Clc1ccc2c(c1)Nc1ccccc1S2
Result block: 0.00492

====

conditions: in acetonitrile, 308.15 K
MEASURED_METRIC: solubility (mole fraction)
Numbers only.

Query block: Please look up its solubility (mole fraction): Clc1ccc2c(c1)Nc1ccccc1S2
Result block: 0.00672

====

settings: in methanol, 298.15 K
MEASURED_METRIC: solubility (mole fraction)
One number for each entry.

Query block: Please look up its solubility (mole fraction): Clc1ccc2c(c1)Nc1ccccc1S2
Result block: 0.00594
